// reported log10 ED50 per item
System: Streptococcus pyogenes C203
Assay: In vivo protection of mice experimentally infected with S. pyogenes C203
Settings: Streptococcus pyogenes, C203; mice; oral; doses given 1 and 4 hours post-infection; read-out: ED50, Oral
Description: The C-20 modified derivatives of this invention have shown in vivo antimicrobial activity against experimentally-induced infections in laboratory animals. When two doses of test compound were administered to mice experimentally infected with S. pyogenes C203, the activity observed was measured as an ED50 value [effective dose in mg/kg to protect 50% of the test animals: see Warren Wick, et al., J. Bacteriol. 81, 233-235 (1961)].
measure: log10 ED50 (log10 of the value in mg/kg)

compound	log10 ED50
CCC1OC(=O)CC(O)C(C)C(OC2OC(C)C(OC3CC(C)(O)C(O)C(C)O3)C(N(C)C)C2O)C(CCN2C(=O)c3ccccc3C2=O)CC(C)C(=O)C=CC(C)=CC1COC1OC(C)C(O)C(OC)C1OC (stereo not drawn) [Compound 1, 20-DH-DO-20-N-Phthalimidotylosin]	1.85
CCC1OC(=O)CC(O)C(C)C(OC2OC(C)C(O)C(N(C)C)C2O)C(CCSc2ccccc2)CC(C)C(=O)C=CC(C)=CC1COC1OC(C)C(O)C(OC)C1OC (stereo not drawn) [Compound 23, 20-DH-DO-20-(phenylthio)desmycosin]	1.23
CCC1OC(=O)CC(O)C(C)C(OC2OC(C)C(OC3CC(C)(O)C(O)C(C)O3)C(N(C)C)C2O)C(CCOc2ccccc2)CC(C)C(=O)C=CC(C)=CC1COC1OC(C)C(O)C(OC)C1OC (stereo not drawn) [Compound 4, 20-DH-20-O-Phenyltylosin]	1.54
CCC1OC(=O)CC(O)C(C)C(OC2OC(C)C(O)C(N(C)C)C2O)C(CCOC(C(F)(F)F)C(F)(F)F)CC(C)C(=O)C=CC(C)=CC1COC1OC(C)C(O)C(OC)C1OC (stereo not drawn) [Compound 32]	1.40
CCC1OC(=O)CC(O)C(C)C(OC2OC(C)C(O)C(N(C)C)C2O)C(CCCl)CC(C)C(=O)C=CC(C)=CC1COC1OC(C)C(O)C(OC)C1OC (stereo not drawn) [Compound 21, 20-DH-DO-20-Chlorodesmycosin]	0.78
CCC1OC(=O)CC(O)C(C)C(OC2OC(C)C(O)C(N(C)C)C2O)C(CCI)CC(C)C(=O)C=CC(C)=CC1COC1OC(C)C(O)C(O)C1OC (stereo not drawn) [Compound 57, 20-DH-DO-20-Iodolactenocin]	1.90

---

Tested on: Mycoplasma gallisepticum
Assay: MIC, broth-dilution microtiter test, Mycoplasma gallisepticum
Format: cell-based
Settings: Mycoplasmoides gallisepticum; Mycoplasma gallisepticum; broth-dilution microtiter; read-out: MIC
Description: The MIC's in Table X were obtained using conventional broth-dilution microtiter tests.
Output 1.0 for records whose MIC is lower than 2 µg/mL, 0.0 for records at or above 2 µg/mL.

compound	label
CCC1OC(=O)CC(O)C(C)C(OC2OC(C)C(O)C(N(C)C)C2O)C(CCF)CC(C)C(=O)C=CC(C)=CC1COC1OC(C)C(O)C(OC)C1OC (stereo not drawn)	0.0
CCC1OC(=O)CC(O)C(C)C(OC2OC(C)C(O)C(N(C)C)C2O)C(CCOC(C(F)(F)F)C(F)(F)F)CC(C)C(=O)C=CC(C)=CC1COC1OC(C)C(O)C(OC)C1OC (stereo not drawn)	1.0
CCC1OC(=O)CC(O)C(C)C(OC2OC(C)C(O)C(N(C)C)C2O)C(CCOc2ccc(OC)cc2)CC(C)C(=O)C=CC(C)=CC1COC1OC(C)C(O)C(OC)C1OC (stereo not drawn)	1.0
CCC1OC(=O)CC(O)C(C)C(OC2OC(C)C(O)C(N(C)C)C2O)C(CCO[N+](=O)[O-])CC(C)C(=O)C=CC(C)=CC1COC1OC(C)C(O)C(OC)C1OC (stereo not drawn)	1.0
CCC1OC(=O)CC(O)C(C)C(OC2OC(C)C(OC3CC(C)(O)C(O)C(C)O3)C(N(C)C)C2O)C(CCOc2ccc([N+](=O)[O-])cc2)CC(C)C(=O)C=CC(C)=CC1COC1OC(C)C(O)C(OC)C1OC (stereo not drawn)	1.0
CCC1OC(=O)CC(O)C(C)C(OC2OC(C)C(OC3CC(C)(O)C(O)C(C)O3)C(N(C)C)C2O)C(CCOc2cc(Cl)cc(Cl)c2)CC(C)C(=O)C=CC(C)=CC1COC1OC(C)C(O)C(OC)C1OC (stereo not drawn)	1.0
CCC1OC(=O)CC(O)C(C)C(OC2OC(C)C(O)C(N(C)C)C2O)C(CCSc2nnnn2C)CC(C)C(=O)C=CC(C)=CC1COC1OC(C)C(O)C(OC)C1OC (stereo not drawn)	1.0
CCC1OC(=O)CC(O)C(C)C(OC2OC(C)C(O)C(N(C)C)C2O)C(CCCl)CC(C)C(=O)C=CC(C)=CC1COC1OC(C)C(O)C(OC)C1OC (stereo not drawn)	1.0
CCC1OC(=O)CC(O)C(C)C(OC2OC(C)C(O)C(N(C)C)C2O)C(CCOc2ccc(C=O)cc2)CC(C)C(=O)C=CC(C)=CC1COC1OC(C)C(O)C(OC)C1OC (stereo not drawn)	0.0

---

Test system: Streptococcus Group D X66
Assay: MIC, standard agar-dilution assay, Streptococcus Group D X66
Format: cell-based
Conditions: Streptococcus Group D X66; agar dilution

compound	MIC (µg/mL)
CCC1OC(=O)CC(O)C(C)C(OC2OC(C)C(O)C(N(C)C)C2O)C(CCOc2ccc(-c3ccccc3)cc2)CC(C)C(=O)C=CC(C)=CC1COC1OC(C)C(O)C(OC)C1OC (centres unmarked)	0.5
CCC1OC(=O)CC(O)C(C)C(OC2OC(C)C(O)C(N(C)C)C2O)C(CCNC(=O)COc2ccccc2)CC(C)C(=O)C=CC(C)=CC1COC1OC(C)C(O)C(OC)C1OC (centres unmarked) [Compound 51c]	1
CCC1OC(=O)CC(O)C(C)C(OC2OC(C)C(O)C(N(C)C)C2O)C(CCOc2nnc(-c3ccccc3)c(-c3ccccc3)n2)CC(C)C(=O)C=CC(C)=CC1COC1OC(C)C(O)C(OC)C1OC (centres unmarked)	4
CCC1OC(=O)CC(O)C(C)C(OC2OC(C)C(O)C(N(C)C)C2O)C(CCOc2ncnc3ccccc23)CC(C)C(=O)C=CC(C)=CC1COC1OC(C)C(O)C(OC)C1OC (centres unmarked)	4

---

Reported ED50 values are given for each entry in this list.
Tested on: Streptococcus pyogenes C203
Experiment: In vivo protection of mice experimentally infected with S. pyogenes C203
Settings: Streptococcus pyogenes, C203, sc; mice; subcutaneous; doses given 1 and 4 hours post-infection; read-out: ED50, Subcutaneous

compound	endpoint unit	ED50
CCC1OC(=O)CC(O)C(C)C(OC2OC(C)C(O)C(N(C)C)C2O)C(CCOC(C)=O)CC(C)C(=O)C=CC(C)=CC1COC1OC(C)C(O)C(OC)C1OC (centres unmarked)	mg/kg	3.4
CCC1OC(=O)CC(O)C(C)C(OC2OC(C)C(O)C(N(C)C)C2O)C(CCOc2cccc(N(C)C)c2)CC(C)C(=O)C=CC(C)=CC1COC1OC(C)C(O)C(OC)C1OC (centres unmarked)	mg/kg	6.7
CCC1OC(=O)CC(O)C(C)C(OC2OC(C)C(O)C(N(C)C)C2O)C(CCI)CC(C)C(=O)C=CC(C)=CC1COC1OC(C)C(O)C(O)C1OC (centres unmarked)	mg/kg	5.2
CCC1OC(=O)CC(O)C(C)C(OC2OC(C)C(O)C(N(C)C)C2O)C(CC2OCCO2)CC(C)C(=O)C=CC(C)=CC1COC1OC(C)C(O)C(OC)C1OC (centres unmarked)	mg/kg	3.3
CCC1OC(=O)CC(O)C(C)C(OC2OC(C)C(O)C(N(C)C)C2O)C(CCOc2ccc(OC)cc2)CC(C)C(=O)C=CC(C)=CC1COC1OC(C)C(O)C(OC)C1OC (centres unmarked)	mg/kg	1.6

---

Test system: Haemophilus influenzae R252
Test: MIC, standard agar-dilution assay, Haemophilus influenzae R252
Assay type: cell-based
Settings: Haemophilus influenzae R252; ampicillin-resistant strain; agar dilution

compound	endpoint unit	MIC
CCC1OC(=O)CC(O)C(C)C(OC2OC(C)C(O)C(N(C)C)C2O)C(CCOc2ncnc3ccccc23)CC(C)C(=O)C=CC(C)=CC1COC1OC(C)C(O)C(OC)C1OC (stereo not drawn) [Compound 51, 20-DH-20-O-(Quinazolin-4-yl)desmycosin]	µg/mL	32
CCC1OC(=O)CC(O)C(C)C(OC2OC(C)C(O)C(N(C)C)C2O)C(CCOc2cccc(Oc3ccccc3)c2)CC(C)C(=O)C=CC(C)=CC1COC1OC(C)C(O)C(OC)C1OC (stereo not drawn) [Compound 48, 20-DH-20-O-(m-Phenoxyphenyl)desmycosin]	µg/mL	16
CCC1OC(=O)CC(O)C(C)C(OC2OC(C)C(O)C(N(C)C)C2O)C(CCOc2ccccc2)CC(C)C(=O)C=CC(C)=CC1COC1OC(C)C(O)C(O)C1OC (stereo not drawn) [Compound 58, 20-DH-20-O-Phenyllactenocin]	µg/mL	16
CCC1OC(=O)CC(O)C(C)C(OC2OC(C)C(O)C(N(C)C)C2OC(C)=O)C(CCOc2ccccc2)CC(C)C(=O)C=CC(C)=CC1COC1OC(C)C(O)C(OC)C1OC (stereo not drawn) [Compound 67, 20-DH-20-O-Phenyl-2'-O-acetyldesmycosin]	µg/mL	16
CCC1OC(=O)CC(O)C(C)C(OC2OC(C)C(O)C(N(C)C)C2O)C(CCN=[N+]=[N-])CC(C)C(=O)C=CC(C)=CC1COC1OC(C)C(O)C(OC)C1OC (stereo not drawn) [Compound 44, 20-DH-DO-20-Azidodesmycosin]	µg/mL	4
CCC1OC(=O)CC(O)C(C)C(OC2OC(C)C(O)C(N(C)C)C2O)C(CCOc2ccc(CO)cc2)CC(C)C(=O)C=CC(C)=CC1COC1OC(C)C(O)C(OC)C1OC (stereo not drawn) [Compound 51a]	µg/mL	32
